The reported numbers originate from ChEMBL document CHEMBL1140337.

Target: Retinoic acid receptor beta (Homo sapiens, UniProt P10826)
Sequence (P10826 whole entry): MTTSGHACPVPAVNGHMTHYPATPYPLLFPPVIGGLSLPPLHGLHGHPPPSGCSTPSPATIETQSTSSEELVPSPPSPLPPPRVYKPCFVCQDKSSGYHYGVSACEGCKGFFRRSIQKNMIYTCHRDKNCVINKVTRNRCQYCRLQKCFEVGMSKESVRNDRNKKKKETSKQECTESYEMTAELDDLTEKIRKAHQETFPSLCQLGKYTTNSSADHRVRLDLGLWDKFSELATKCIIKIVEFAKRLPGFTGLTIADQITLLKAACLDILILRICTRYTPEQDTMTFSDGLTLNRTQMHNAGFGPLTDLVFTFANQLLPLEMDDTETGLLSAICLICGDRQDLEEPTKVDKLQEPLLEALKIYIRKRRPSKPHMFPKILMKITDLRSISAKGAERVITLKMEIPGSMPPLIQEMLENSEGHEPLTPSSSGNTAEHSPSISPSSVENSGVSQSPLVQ
Assay: Effective concentration against retinoic acid receptor beta in COS-7 cells co-expressing DR5-tk-CAT reporter; value range (0.1-0.3)
Type: cell-based
RECORDED_ENDPOINT: pEC50
Numbers only, as −log10 of the molar value.

Problem: pEC50 lookup needed for `O=C(O)/C=C/c1ccc(-c2ccc(O)c(C34CC5CC(CC(C5)C3)C4)c2)cc1` , thanks.
Solution: 6.70

* * *

Test: Effective concentration against retinoic acid receptor gamma in COS-7 cells co-expressing DR5-tk-CAT reporter; value range (0.8-2.4)
Type: cell-based
RECORDED_ENDPOINT: EC50 (nM)
Give bare numbers, in nM.

Problem: EC50 lookup needed for `O=C(/C=C/c1ccc(-c2ccc(O)c(C34CC5CC(CC(C5)C3)C4)c2)cc1)Nc1ccc(O)cc1` , thanks.
Solution: 1400

* * *

Experiment: Effective concentration against retinoic acid receptor gamma in COS-7 cells co-expressing DR5-tk-CAT reporter; value range (0.1-0.3)
Type: cell-based
RECORDED_ENDPOINT: pEC50
Give bare numbers, as −log10 of the molar value.

Problem: pEC50 lookup needed for `O=C(O)/C=C/c1ccc(-c2ccc(O)c(C34CC5CC(CC(C5)C3)C4)c2)cc1` , thanks.
Solution: 7.00

* * *

Biological target: Retinoic acid receptor beta (Homo sapiens, UniProt P10826)
Sequence (P10826 whole entry): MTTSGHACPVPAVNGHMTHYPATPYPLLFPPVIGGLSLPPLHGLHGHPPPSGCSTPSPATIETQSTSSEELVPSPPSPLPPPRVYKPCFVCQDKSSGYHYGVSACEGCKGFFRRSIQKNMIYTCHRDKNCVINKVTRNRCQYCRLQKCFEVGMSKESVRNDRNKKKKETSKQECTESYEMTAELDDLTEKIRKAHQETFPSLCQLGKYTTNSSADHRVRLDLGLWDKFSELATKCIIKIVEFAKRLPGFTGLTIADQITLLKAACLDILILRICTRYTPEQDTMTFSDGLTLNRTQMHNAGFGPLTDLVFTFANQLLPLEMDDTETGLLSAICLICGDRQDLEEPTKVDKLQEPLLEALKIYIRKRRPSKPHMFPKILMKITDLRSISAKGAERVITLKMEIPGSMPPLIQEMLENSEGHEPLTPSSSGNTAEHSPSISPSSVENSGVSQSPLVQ
Assay: Effective concentration against retinoic acid receptor beta in COS-7 cells co-expressing DR5-tk-CAT reporter; value range (7.5-41.1)
Assay type: cell-based
RECORDED_ENDPOINT: pEC50
Numbers only, as −log10 of the molar value.

Problem: So what pEC50 did `Nc1ccccc1NC(=O)/C=C/c1ccc(-c2ccc(O)c(C34CC5CC(CC(C5)C3)C4)c2)cc1` get with Retinoic acid receptor beta (Homo sapiens, UniProt P10826)?
Solution: 4.75

* * *

Biological target: UniProt:P10826
Sequence (P10826 whole entry): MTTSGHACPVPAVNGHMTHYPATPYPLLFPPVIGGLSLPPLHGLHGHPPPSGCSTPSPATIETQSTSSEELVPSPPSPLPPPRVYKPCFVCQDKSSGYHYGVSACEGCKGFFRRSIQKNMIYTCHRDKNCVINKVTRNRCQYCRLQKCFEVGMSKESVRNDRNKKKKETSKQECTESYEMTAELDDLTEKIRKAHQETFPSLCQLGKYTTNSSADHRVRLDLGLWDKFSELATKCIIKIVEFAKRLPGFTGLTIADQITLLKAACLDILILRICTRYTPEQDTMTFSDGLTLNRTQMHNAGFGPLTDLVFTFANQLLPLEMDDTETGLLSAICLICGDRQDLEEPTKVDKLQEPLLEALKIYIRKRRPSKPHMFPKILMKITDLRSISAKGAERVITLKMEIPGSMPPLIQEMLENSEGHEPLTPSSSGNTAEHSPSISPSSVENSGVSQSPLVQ
Assay: Effective concentration against retinoic acid receptor beta in COS-7 cells co-expressing DR5-tk-CAT reporter; value range (6.1-9.8)
Format: cell-based
RECORDED_ENDPOINT: EC50 (µM)
Numbers only, in µM.

Problem: EC50 lookup needed for `O=C(/C=C/c1ccc(-c2ccc(O)c(C34CC5CC(CC(C5)C3)C4)c2)cc1)Nc1ccc(O)cc1` , thanks.
Solution: 7.7
